- experimentSummary: CEETOX_H295R_MTT_cell_viability: Viability Assessment in the CeeTox HT-H295R MTT Assay (AID 2283718);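 on AC50: curve fitted both ways so AC50 may mark viability loss or gain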
- Method: CEETOX_H295R is a cell-based, multiplexed-readout assay that uses H295R, a human adrenal gland cell line, with measurements taken at 48 hours after chemical dosing in a 96-well plate.CEETOX_H295R_MTT_cell_viability is one of 23 assay component(s) measured or calculated from the CEETOX_H295R assay. […]
Activity calls are given as the source filed them. How the source made its calls: active means hit-call score of the fitted dose curve at least 0.9, where 1 is the maximum; inactive means score below 0.9.

{"testSmiles": "COc1cc2c(c(OC)c1OC)-c1ccc(OC)c(=O)cc1[C@@H](NC(C)=O)CC2", "AC50": "118 nM (active)"}
{"testSmiles": "O=S(=O)(O)c1ccc(N=Nc2c(O)ccc3cc(S(=O)(=O)O)ccc23)cc1", "AC50": "inactive"}
{"testSmiles": "c1ccc2cc3ccccc3cc2c1", "AC50": "inactive"}
{"testSmiles": "c1ccc2c(c1)-c1cccc3c1c-2cc1ccccc13", "AC50": "inactive"}
